Target: T1, human SIRPβL ECD recombinant protein (6×His tagged) (human, UniProt Q5TFQ8 30-371)
T1 construct: given variously as SIRPBL, SIRPBI and SIRPβI; Bought from Biointron; also called human SIRPBL ECD; human SIRPBI ECD
T1 sequence (Q5TFQ8 30-371 limits assumed): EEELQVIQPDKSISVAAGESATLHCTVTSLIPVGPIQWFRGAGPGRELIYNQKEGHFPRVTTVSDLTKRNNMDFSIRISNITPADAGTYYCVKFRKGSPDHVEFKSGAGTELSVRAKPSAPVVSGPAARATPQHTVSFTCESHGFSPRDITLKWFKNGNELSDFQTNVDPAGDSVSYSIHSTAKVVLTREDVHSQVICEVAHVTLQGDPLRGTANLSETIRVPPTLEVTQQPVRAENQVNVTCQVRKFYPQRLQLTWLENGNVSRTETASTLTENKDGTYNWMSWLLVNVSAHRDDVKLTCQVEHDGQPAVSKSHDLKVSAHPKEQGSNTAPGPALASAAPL
Test: ELISA, hSIRPβI ECD
Value kind: pEC50
# pEC50 is unitless: minus log10 of the molar concentration; print number only

071c (antibody, V domains shown, also called chimeric antibody 071c) VH: QIQLVQSGPELKKPGETVKISCKASGYTFTTYGMSWVKQAPGKGLKWMVWINTYSGVPTYADDFQGRFAFSLETSASTSYLQINNLRNEDTATYFCARDPHYYGTSPAWFAYWGQGTLVTVSA VL: DIVMTQSQKFMSTTIGDRVIITCKASQIVGIAVAWYQQKPGQSPKLLIYSASNRFTGVPDRFTGSGSGTDFTLTISNMQSEDLADYFCQQYSTYPFTFGSGTKLEIK; 9.52
042c (antibody, V domains shown, also called chimeric antibody 042c) VH: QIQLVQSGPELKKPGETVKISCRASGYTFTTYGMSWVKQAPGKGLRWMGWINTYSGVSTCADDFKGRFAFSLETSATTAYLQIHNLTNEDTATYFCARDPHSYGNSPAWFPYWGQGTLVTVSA VL: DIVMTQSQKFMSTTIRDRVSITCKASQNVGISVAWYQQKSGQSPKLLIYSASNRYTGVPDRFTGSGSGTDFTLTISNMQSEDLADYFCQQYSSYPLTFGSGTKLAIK; 9.41

Please turn your attention to the following entry.
[Q] Could you tell me which pEC50 is on file for 059c (antibody, V domains shown, also called chimeric antibody 059c) VH: QVQLQQSGPELVKPGASVKMSCKASGYTFSEYVLSWVKQRTGQGLEWIGEIYPGTITTYYNEKFKGKATLTADKSSNTAYIQLTSLTSEDSAVYFCGRFYDYDGGWFAYWGQGTLLTVSA VL: ENVLTQSPEKMAVSLGQKVTMTCSASSSVSSSDLHWYQQKSGASPKPLIHGTSNLASGVPARFSGSGSGTSYSLTISSVEAEDAATYYCQQWSGYPWTFGGGTNLEIK ?
[A] 9.15
